Reference source: paper PMC12603070

Test target: His-14-3-3ζ (Homo sapiens)
Construct: made in house; host or cells: Escherichia coli BL21 LOBSTR-RIL
Sequence (P63104 whole entry): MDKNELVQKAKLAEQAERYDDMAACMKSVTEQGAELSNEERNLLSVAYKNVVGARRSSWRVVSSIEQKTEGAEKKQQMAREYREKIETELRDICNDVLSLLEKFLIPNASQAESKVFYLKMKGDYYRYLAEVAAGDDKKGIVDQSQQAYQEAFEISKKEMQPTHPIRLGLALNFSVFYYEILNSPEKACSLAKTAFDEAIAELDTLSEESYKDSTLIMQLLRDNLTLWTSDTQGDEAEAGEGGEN
Assay explanation: Surface plasmon resonance (SPR) on immobilized His-14-3-3ζ
Assay type: binding
Measurement setup: SPR, immobilized 14-3-3ζ
Quantity: Kd
Mention the unit after the number when you answer.

Exam item: Query (compound): O=C(NC1CCN(CCCCC2(C(=O)NCC(F)(F)F)c3ccccc3-c3ccccc32)CC1)c1ccccc1-c1ccc(C(F)(F)F)cc1 [Lomitapide] ; field requested: Kd
Marked response: 900 nM

====

Tested on: NIH-3T3 cells
Assay explanation: Hoechst/propidium iodide cell death assay in NIH-3T3
Assay type: cell-based
Measurement setup: Mus musculus, NIH3T3, 24 h, 20 µM, 24 h; read-out: Percentage of cell death % 24h NIH3t3
Where a name gives a salt, the structure may show the parent alone.
Rule: cytotoxicity at 20 µM below 6% gives fulfilled, anything at or above gives not fulfilled.

See these solved cases before continuing.
{"Molecule": "Clc1ccc(CCC(Cn2ccnc2)Sc2c(Cl)cccc2Cl)cc1 (stereo not shown) [Butoconazole nitrate]", "Class label": "fulfilled"}
{"Molecule": "CC[C@H](c1ccc(O)cc1)[C@@H](CC)c1ccc(O)cc1 [Hexestrol]", "Class label": "fulfilled"}
{"Molecule": "C=C(c1ccc(C(=O)O)cc1)c1cc2c(cc1C)C(C)(C)CCC2(C)C [Bexarotene]", "Class label": "fulfilled"}

Exam item: cytotoxicity at 20 µM strictly < 6% for this molecule? CCCCCCCCc1ccc(CCC(N)(CO)CO)cc1 [Fingolimod (FTY720), Fingolimod]
Marked response: not fulfilled

Exam item: Is 6% strictly greater than the molecule's reported cytotoxicity at 20 µM? molecule: Cc1cc(Nc2ncc(Cl)c(Nc3ccccc3S(=O)(=O)C(C)C)n2)c(OC(C)C)cc1C1CCNCC1 [LDK378]
Marked response: not fulfilled

Exam item: Determine whether this molecule shows cytotoxicity at 20 µM lower than 6% (ties excluded): CN1CCN(c2ccc(C(=O)Nc3n[nH]c4ccc(Cc5cc(F)cc(F)c5)cc34)c(NC3CCOCC3)c2)CC1 [Entrectinib]
Marked response: not fulfilled

Exam item: I'd appreciate it if you could check whether CC(C)(C)c1ccc(C(O)CCCN2CCC(C(O)(c3ccccc3)c3ccccc3)CC2)cc1 (stereo not shown) [Terfenadine] has cytotoxicity at 20 µM smaller than 6%.
Marked response: not fulfilled

Exam item: Determine if Cc1cc(Nc2cc(CN3CCOCC3)c3nc(C)c(Cc4ccc(Cl)cc4F)n3n2)n[nH]1 [LY2784544] shows cytotoxicity at 20 µM strictly lower than 6%.
Marked response: not fulfilled

Exam item: Is cytotoxicity at 20 µM strictly under 6% for the entry CSc1ccc2c(c1)N(CCC1CCCCN1C)c1ccccc1S2 (stereo not shown) [Thioridazine HCl] ?
Marked response: not fulfilled

Exam item: hey, is cytotoxicity at 20 µM for CC(C)(C)c1cc(C(C)(C)C)c(NC(=O)c2c[nH]c3ccccc3c2=O)cc1O [Ivacaftor (VX-770), Ivacaftor] lower than 6% or not?
Marked response: not fulfilled
